Test system: HEK-293T
Experiment: Multiplex assay against HEK293T
Type: toxicity, cell-based
Conditions: human, 12 h, 1 µM, compound concentration 1 uM, replicate 1
property: Total Cell Count

CCCN1CCC[C@@H]2Cc3n[nH]cc3C[C@H]21.Cl [QUINPIROLE HYDROCHLORIDE] : 447
Cc1ccc(C(C)(O)c2nc3ccccc3s2)c(C)c1 (stereo unspecified) : 483
Cc1ccc(-c2ccc(F)cc2COc2ccc(CCC(=O)O)cc2)cc1 : 465
CCNC1(C(N)=O)CCN(c2ncnc3c2nc(-c2ccccc2Cl)n3-c2ccc(Cl)cc2)CC1 [OTENABANT] : 401
C[C@H](NC(=O)c1c(C(F)F)nn(C)c1Oc1cccc(C(F)(F)F)c1)c1ccc(C(=O)O)cc1 [PALUPIPRANT] : 407
Cl.Clc1ccc2nsnc2c1NC1=NCCN1 [TIZANIDINE HYDROCHLORIDE] : 474
CN(C)c1ccnc2sc3c(=O)n(N4CCCCCC4)cnc3c12 : 360
c1cc(OCCCN2CCCCC2)ccc1CN1CCCCC1 [JNJ-5207852] : 577
Cc1nc2ccc(Oc3ccc(F)cc3)cc2c(=O)n1C[C@H]1CCCN(C(C)C)C1.Cl : 381
Oc1c(CN2CCN(c3ccccn3)CC2)cc(Cl)c2cccnc12 : 424
CCOc1c2c(c(OCC)c3ncccc13)CN(c1ccc(CS(=O)(=O)NC(=O)Cc3ccccc3OC)cc1C)C2=O : 356

* * *

Tested on: HEK-293T
Assay: Multiplex assay against HEK293T
Assay type: toxicity, cell-based
Details: human, 12 h, 10 µM, compound concentration 10 uM, replicate 1
property: Population Mitochondria Different-Phenotype (%)

O=C(O)c1cc2ccccc2c(Cc2c(O)c(C(=O)O)cc3ccccc23)c1O : 44%
CC1(COc2ccc3c(c2)ncn3-c2ccc3cccc(N4CCC(N)CC4)c3n2)COC1 : 84%
Cl.Clc1ccc2nsnc2c1NC1=NCCN1 [TIZANIDINE HYDROCHLORIDE] : 45%
O=C1COc2nccc(-c3ccccc3F)c2CN1Cc1cc(C(F)(F)F)cc(C(F)(F)F)c1 : 67%
COc1cc(NC(=O)CCN2CCC(OC(=O)Nc3ccccc3-c3ccccc3)CC2)c(Cl)cc1CNC[C@H](O)c1ccc(O)c2[nH]c(=O)ccc12 : 0%

* * *

Tested on: Fibroblast
Experiment: Multiplex assay against human fibroblast
Assay type: toxicity, cell-based
Settings: 12 h, 10 µM, compound concentration 10 uM, replicate 1
Reported Population Apoptotic (%) values follow for various compounds
property: Population Apoptotic (%)

O=C1COc2nccc(-c3ccccc3F)c2CN1Cc1cc(C(F)(F)F)cc(C(F)(F)F)c1 : 54
N#Cc1c(N)nc(SCc2csc(-c3ccc(Cl)cc3)n2)c(C#N)c1-c1ccc(OCCO)cc1 : 31
CNC[C@H](O)c1ccc(O)c(O)c1 [EPINEPHRINE] : 40
CN1CCN(c2nc3cc(C(F)(F)F)ccc3n3cccc23)CC1.O=C(O)/C=C\C(=O)O.O=C(O)/C=C\C(=O)O : 40
Cl.Clc1ccc2nsnc2c1NC1=NCCN1 [TIZANIDINE HYDROCHLORIDE] : 36
Cc1ccc(/C(=C\CN2CCCC2)c2ccccn2)cc1 : 57
CC(=O)NCCc1c(Cc2ccccc2)[nH]c2ccccc12 : 19
C[C@@H]1C[C@H]2[C@@H]3CCC4=CC(=O)C=C[C@]4(C)[C@@]3(F)[C@@H](O)C[C@]2(C)[C@@]1(O)C(=O)CO : 35
CCCn1c(=O)c2[nH]c(C3CCCC3)nc2n(CCC)c1=O : 58

* * *

Tested on: U2OS
Assay: Multiplex assay against U2OS
Type: toxicity, cell-based
Conditions: human, 12 h, 1 µM, compound concentration 1 uM, replicate 1
property: Total Cell Count

Cl.Clc1ccc2nsnc2c1NC1=NCCN1 [TIZANIDINE HYDROCHLORIDE] : 306
O=C(O)c1cc2ccccc2c(Cc2c(O)c(C(=O)O)cc3ccccc23)c1O : 246
CCCN1CCC[C@@H]2Cc3n[nH]cc3C[C@H]21.Cl [QUINPIROLE HYDROCHLORIDE] : 265
N[C@@]1(C(=O)O)CO[C@H]2[C@H](C(=O)O)[C@H]21 : 211
O=S(=O)(c1ccccc1)c1cnc2c(N3CCNCC3)cccc2c1 [INTEPIRDINE] : 267
O=C(O)Cc1ccccc1Nc1c(Cl)cccc1Cl : 164
CSc1ccccc1N1CCN(CCCCCC(=O)NC2CCCc3ccccc32)CC1.Cl (centres undefined) : 222
Cc1ccccc1C(=O)Nc1ccc(C(=O)N2CCCC(N(C)C)c3ccccc32)cc1.Cl (centres undefined) : 282
N#Cc1c(N)nc(SCc2csc(-c3ccc(Cl)cc3)n2)c(C#N)c1-c1ccc(OCCO)cc1 : 236

* * *

System: Fibroblast
Assay: Multiplex assay against human fibroblast
Assay type: toxicity, cell-based
Conditions: 12 h, 10 µM, compound concentration 10 uM, replicate 1
Reported Population Normal (%) values follow for various compounds
property: Population Normal (%)

CCCC(CCC)C(=O)O : 95
CCCn1c(=O)c2[nH]c(C3CCCC3)nc2n(CCC)c1=O : 96
CN1CCN(c2nc3cc(C(F)(F)F)ccc3n3cccc23)CC1.O=C(O)/C=C\C(=O)O.O=C(O)/C=C\C(=O)O : 97
N#Cc1c(N)nc(SCc2csc(-c3ccc(Cl)cc3)n2)c(C#N)c1-c1ccc(OCCO)cc1 : 98
CN(C)CCCc1cc(C(=O)Nc2ccc(-c3ccncc3)cc2)ccc1O.Cl.Cl : 92
Cc1ccccc1C(=O)Nc1ccc(C(=O)N2CCCC(N(C)C)c3ccccc32)cc1.Cl (centres undefined) : 98
CC(C)(C)c1ccc(S(=O)(=O)Nc2ccc(Cl)cc2C(=O)c2cc[n+]([O-])cc2)cc1 : 96
CC(=O)NCCc1c(Cc2ccccc2)[nH]c2ccccc12 : 97
Cl.Clc1ccc2nsnc2c1NC1=NCCN1 [TIZANIDINE HYDROCHLORIDE] : 95

* * *

System: U2OS
Assay: Multiplex assay against U2OS
Type: toxicity, cell-based
Conditions: human, 24 h, 1 µM, compound concentration 1 uM, replicate 1
Reported Population Membrane Permeable-Phenotype (%) values follow for various compounds
property: Population Membrane Permeable-Phenotype (%)

CNC[C@H](O)c1ccc(O)c(O)c1 [EPINEPHRINE] : 6%
c1cc(OCCCN2CCCCC2)ccc1CN1CCCCC1 [JNJ-5207852] : 3%
COc1ccc2c(c1)C(C(=O)N(Cc1ccc(N(C)C)cc1)c1ccc(C(C)C)cc1)CCC2.Cl (stereo not drawn) : 5%
O=C(O)Cc1ccccc1Nc1c(Cl)cccc1Cl [DICLOFENAC] : 2%
CCCN1CCC[C@@H]2Cc3n[nH]cc3C[C@H]21.Cl [QUINPIROLE HYDROCHLORIDE] : 4%
COc1cc(NC(=O)CCN2CCC(OC(=O)Nc3ccccc3-c3ccccc3)CC2)c(Cl)cc1CNC[C@H](O)c1ccc(O)c2[nH]c(=O)ccc12 [BATEFENTEROL] : 9%
COc1c(C)cc(NC(=O)c2nn(Cc3ccc(F)cc3)c3c2CN(C(=O)c2ccc[nH]2)C[C@]3(C)C(N)=O)cc1C : 8%
Cc1ccccc1C(=O)Nc1ccc(C(=O)N2CCCC(N(C)C)c3ccccc32)cc1.Cl (stereo not drawn) : 6%

* * *

System: HEK-293T
Experiment: Multiplex assay against HEK293T
Format: toxicity, cell-based
Conditions: human, 24 h, 1 µM, compound concentration 1 uM, replicate 1
Outcome label depends on Population Mitotic Cells (%) relative to 70%: at/above gives Fulfilled, below gives Not fulfilled.

CSCC[C@H](NC=O)C(=O)N[C@@H](CC(C)C)C(=O)N[C@@H](Cc1ccccc1)C(=O)O : Fulfilled
Cl.Clc1ccc2nsnc2c1NC1=NCCN1 [TIZANIDINE HYDROCHLORIDE] : Not fulfilled
Cc1ccc(C(C)(O)c2nc3ccccc3s2)c(C)c1 (stereo not given) : Fulfilled
COc1cc(NC(=O)CCN2CCC(OC(=O)Nc3ccccc3-c3ccccc3)CC2)c(Cl)cc1CNC[C@H](O)c1ccc(O)c2[nH]c(=O)ccc12 : Not fulfilled
CCCn1c(=O)c2[nH]c(C3CCCC3)nc2n(CCC)c1=O : Fulfilled
O=C1COc2nccc(-c3ccccc3F)c2CN1Cc1cc(C(F)(F)F)cc(C(F)(F)F)c1 : Fulfilled
CCNC1(C(N)=O)CCN(c2ncnc3c2nc(-c2ccccc2Cl)n3-c2ccc(Cl)cc2)CC1 : Not fulfilled
CNC[C@H](O)c1ccc(O)c(O)c1 [EPINEPHRINE] : Fulfilled
C[C@H](NC(=O)c1c(C(F)F)nn(C)c1Oc1cccc(C(F)(F)F)c1)c1ccc(C(=O)O)cc1 : Not fulfilled
CC[C@H]1OC(=O)[C@H](C)[C@@H](O[C@H]2C[C@@](C)(OC)[C@@H](O)[C@H](C)O2)[C@H](C)[C@@H](O[C@@H]2O[C@H](C)C[C@H](N(C)C)[C@H]2O)[C@@]2(C)CC(C)=C(O2)[C@H](C)[C@@H](O)[C@]1(C)O : Fulfilled
N#Cc1c(N)nc(SCc2csc(-c3ccc(Cl)cc3)n2)c(C#N)c1-c1ccc(OCCO)cc1 : Not fulfilled
Cc1ccc(-c2ccc(F)cc2COc2ccc(CCC(=O)O)cc2)cc1 : Fulfilled
CN1CCN(c2nc3cc(C(F)(F)F)ccc3n3cccc23)CC1.O=C(O)/C=C\C(=O)O.O=C(O)/C=C\C(=O)O : Not fulfilled
CC(C)(C)c1ccc(S(=O)(=O)Nc2ccc(Cl)cc2C(=O)c2cc[n+]([O-])cc2)cc1 : Not fulfilled
COc1c(C)cc(NC(=O)c2nn(Cc3ccc(F)cc3)c3c2CN(C(=O)c2ccc[nH]2)C[C@]3(C)C(N)=O)cc1C : Fulfilled
Oc1c(CN2CCN(c3ccccn3)CC2)cc(Cl)c2cccnc12 : Not fulfilled
C[C@H]1[C@H]2CC[C@H]3[C@@H]4CC=C5C[C@@H](N(C)C)CC[C@]5(C)[C@H]4CC[C@]23CN1C : Fulfilled
O=C(NCC(=O)N1CC[C@H](N[C@H]2CC[C@@](O)(c3ccc(-c4ncccn4)cn3)CC2)C1)c1cccc(C(F)(F)F)c1 : Fulfilled
CSc1ccccc1N1CCN(CCCCCC(=O)NC2CCCc3ccccc32)CC1.Cl (stereo not given) : Not fulfilled
CC(=O)NCCc1c(Cc2ccccc2)[nH]c2ccccc12 : Fulfilled
COc1cc(C(=O)N(CCCc2ccccc2)Cc2ccc(CC(=O)O)cc2)cc(OC)c1C : Not fulfilled
CN1CCN2c3ncccc3Cc3ccccc3C2C1 (stereo not given) : Not fulfilled
c1cc(OCCCN2CCCCC2)ccc1CN1CCCCC1 : Fulfilled
CN(C)CCCc1cc(C(=O)Nc2ccc(-c3ccncc3)cc2)ccc1O.Cl.Cl : Fulfilled

Just for reference, ChEMBL document CHEMBL5058577 is where these values come from.
